- Test system: HGGX39 (paediatric high-grade glioma line)
- EXPERIMENTAL_PROTOCOL: growth inhibition (% activity, log2 RLU normalised to DMSO / staurosporine); higher = more growth inhibition
- EXPERIMENTAL_CONTEXT: 33 µM
This listing pairs compounds with measured growth inhibition.
State just the number; it will be interpreted in %.

Below are worked cases with known answers.
1. CC12CC3CC(C)(C1)CC(N)(C3)C2 | 1.57
2. CCN(CC)CCOc1ccc(C(=C(Cl)c2ccccc2)c2ccccc2)cc1 | 36.3
3. CC(C)CN(C[C@@H](O)[C@H](Cc1ccccc1)NC(=O)O[C@H]1CO[C@H]2OCC[C@H]21)S(=O)(=O)c1ccc(N)cc1 | -1.58
4. O[C@@H]1CO[C@H]2[C@@H]1OC[C@@H]2O | 0.692
5. CC(C)NCC(O)c1cc(O)cc(O)c1 (stereo unspecified) | 2.87

Challenge: Tell me measured growth inhibition for `NCCS` please.
Response given: -2.78

Challenge: Tell me measured growth inhibition for `CC(C)(O/N=C(\C(=O)N[C@@H]1C(=O)N2C(C(=O)[O-])=C(C[n+]3ccccc3)CS[C@H]12)c1csc(N)n1)C(=O)O` please.
Response given: 1.23

Challenge: Tell me measured growth inhibition for Clc1ccc(C(Cn2ccnc2)OCc2c(Cl)cccc2Cl)c(Cl)c1 (stereo unspecified) please.
Response given: 8.33

Challenge: Tell me measured growth inhibition for NS(=O)(=O)c1cc2c(cc1Cl)NC(C(Cl)Cl)NS2(=O)=O (stereo unspecified) please.
Response given: 4.4

Challenge: Tell me measured growth inhibition for `Cc1cn([C@H]2C[C@H](N=[N+]=[N-])[C@@H](CO)O2)c(=O)[nH]c1=O` please.
Response given: 5.5

Challenge: Tell me measured growth inhibition for CN1C(CCl)Nc2cc(Cl)c(S(N)(=O)=O)cc2S1(=O)=O (stereo unspecified) please.
Response given: 2.55
